Tested on: MDA-MB-468 breast
Assay: NCI tumour cell line growth inhibition, 48 h; in the data active means GI50 below about 0.43 µM; inactive means the rest
Outcome field: choose from active, inactive

Check out these entries, answers already filled in.
COc1ccc(C(=O)c2cc(OC)c(C)c(OC)c2)cc1OC(=O)CCl; inactive
CC(C)c1ccc(Nc2ccc3c(OCCCN4CCN(C)CC4)cccc3n2)cc1; inactive
NC(=NCCCOc1ccc(Cl)cc1)Nc1ccc(C(F)(F)F)cc1; inactive
O=c1n(CC2CO2)c(=O)n(CC2CO2)c(=O)n1CC1CO1 (configuration not stated); inactive

Entry COc1cc(C(=O)c2cc(C)c3[nH]c4ccc(Cl)cc4c3c2C)cc(OC)c1OC : call = ?
active

Recorded call for C/C(=C\CCc1ccoc1)CC/C=C(\C)CCCC1=CC(=O)OC1 ?
inactive

Record request — test call for COc1ccc(N(C)c2ncnc3occ(C)c23)cc1
active
